- test_target: Cytochrome P450 3A4 (Homo sapiens, UniProt P08684)
- Sequence (P08684 whole entry): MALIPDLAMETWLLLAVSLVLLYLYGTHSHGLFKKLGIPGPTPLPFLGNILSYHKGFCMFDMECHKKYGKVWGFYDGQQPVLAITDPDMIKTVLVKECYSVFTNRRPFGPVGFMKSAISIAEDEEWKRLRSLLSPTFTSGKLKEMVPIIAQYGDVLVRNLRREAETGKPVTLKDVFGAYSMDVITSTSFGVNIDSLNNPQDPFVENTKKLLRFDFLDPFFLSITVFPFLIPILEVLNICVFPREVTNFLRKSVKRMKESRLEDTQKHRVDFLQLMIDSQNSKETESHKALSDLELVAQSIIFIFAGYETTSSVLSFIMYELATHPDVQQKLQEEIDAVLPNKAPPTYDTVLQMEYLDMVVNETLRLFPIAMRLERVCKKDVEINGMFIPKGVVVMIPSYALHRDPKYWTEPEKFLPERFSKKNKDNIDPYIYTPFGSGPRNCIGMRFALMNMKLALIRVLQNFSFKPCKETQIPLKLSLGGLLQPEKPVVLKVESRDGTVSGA
- experiment: Inhibition of CYP3A4 at 30 uM by FRET assay
- Assay type: ADME
assay_readout: inhibition (INH) (%)

Solved entries (count: 5):
[ask] Data request, read-out inhibition (INH), for COc1ccc(C(NC(=O)COc2ccc(NC(C)=O)cc2)c2cc(Cl)c3cccnc3c2O)cc1 (centres undefined)
[reply] 37

[ask] Reported inhibition (INH) for Cc1cc(NCC(=O)NC(c2cccc([N+](=O)[O-])c2)c2cc(Cl)c3cccnc3c2O)ccc1Cl (centres undefined) : what is it?
[reply] 17

[ask] Entry under review: Cc1ccc(C(NC(=O)CNCc2ccccc2)c2cc(Cl)c3cccnc3c2O)cc1 (centres undefined) . Reported inhibition (INH)?
[reply] 29

[ask] Quick one: inhibition (INH) of COc1ccc(C(NC(=O)COc2ccc(Cl)c(C)c2)c2cc(Cl)c3cccnc3c2O)cc1 (centres undefined) ?
[reply] 25

[ask] Using the record for Cc1cc(OCC(=O)NC(c2cccc([N+](=O)[O-])c2)c2cc(Cl)c3cccnc3c2O)ccc1Cl (centres undefined) , report its inhibition (INH).
[reply] 19

a. O=C(CNCc1ccccc1)NC(c1ccccc1Cl)c1cc(Cl)c2cccnc2c1O (centres undefined)
b. COc1ccc(C(NC(=O)COc2ccccc2)c2cc(Cl)c3cccnc3c2O)cc1 (centres undefined)
c. CC(=O)c1ccc(OCC(=O)NC(c2cccc([N+](=O)[O-])c2)c2cc(Cl)c3cccnc3c2O)cc1 (centres undefined)
d. O=C(COc1ccccc1)NC(c1ccccc1)c1cc(Cl)c2cccnc2c1O (centres undefined)
[ask] Order each entry by recorded inhibition (INH), climbing from the minimum. // format: requested-order list of labels
[reply] d, c, a, b
(d: 5%, c: 18%, a: 36%, b: 54%)

Hello, the source for this data is ChEMBL document CHEMBL1141004, in case you need it.
